Tested on: OVCAR-4 ovarian
Experiment notes: NCI-60 one-dose screen, 48 h (100 = growth as untreated, 0 = no growth, -100 = all killed)
Experimental context: 10 µM unless noted
Procedure: Growth inhibition of the OVCAR-4 human tumor cell line is measured as a screen for anti-cancer activity. Cells are grown in 96 well plates and exposed to the test compound for 48 hours. Compounds are tested at a single concentration, which is 10^-5 M for most compounds. The reported endpoint is percent growth (GI% or GIPRCNT), where numbers from 0 - 100% represent growth inhibition, and numbers from -100% - 0 represent cell death. For example, a value of 40 represents 60% growth inhibition. […]
This is part of a sample that, as a whole, favours compounds with a hit. Of some 83,000 tested, about 20% had one in any assay.
Measured growth by item
Quantity kind: growth (%)

[[record]]
compound = "Cc1ccc2c(c1)c(Sc1ccc(C(=O)NO)cc1)c1n2CN(C)CC1"
assay_value = -1.78

[[record]]
compound = "O=C(NCc1cccnc1)c1ccc([N+](=O)[O-])o1"
assay_value = 63.9

[[record]]
compound = "CCOC(=O)c1sc(NC(=O)CN2CCC(Cc3ccccc3)CC2)nc1C"
assay_value = 98.6

[[record]]
compound = "O=C1OCC2=C1C(c1ccc3c(c1)OCO3)CC(=O)N2c1cccc(Cl)c1 (stereo not given)"
assay_value = 93.5

[[record]]
compound = "COc1cccc(C2C3=C(COC3=O)N(CCO)c3cc4c(cc32)CCC4)c1 (stereo not given)"
assay_value = 10.3

[[record]]
compound = "CCN(C(=O)c1ccc2c3c(cccc13)C=C2)c1ccccc1"
assay_value = 106

[[record]]
compound = "C[C@@H](Oc1cc(-c2cnn(C3CC4(CNC4)C3)c2)cnc1N)c1c(Cl)ccc(F)c1Cl"
assay_value = 48.2

[[record]]
compound = "COc1ccc(C(=O)C2=CC(=O)C(=O)C2)cc1OC"
assay_value = 109

[[record]]
compound = "O=S(=O)(/N=C1C=C/C(=N\\S(=O)(=O)c2ccccc2)c2ccccc2\\1)c1ccccc1"
assay_value = 91.9

[[record]]
compound = "COc1cc2cc(Oc3ccc(NC(=O)Nc4ccc(Cl)c(C(F)(F)F)c4)cc3)c(C)nc2cc1OCCN1CCCCC1"
assay_value = -4.36


----------
Test system: OVCAR-8 ovarian
Experiment notes: NCI-60 one-dose screen, 48 h (100 = growth as untreated, 0 = no growth, -100 = all killed)
Experimental context: 10 µM unless noted
This is part of a sample that, as a whole, favours compounds with a hit. Of some 83,000 tested, about 20% had one in any assay.
Quantity kind: growth (%)

[[record]]
compound = "COc1cc(/C=C/C(=O)CC(=O)/C=C/c2cc(Br)c(OC)c(OC)c2)cc(Br)c1OC"
units_of_measure = "%"
assay_value = 102

[[record]]
compound = "COc1cccc(C2CC(=O)Nc3cc4c(cc32)CCC4)c1OC (stereo not given)"
units_of_measure = "%"
assay_value = 84.9

[[record]]
compound = "CN1CCN(C(=O)OCCOCCOC(=O)N2CCN(C)CC2)CC1"
units_of_measure = "%"
assay_value = 102

[[record]]
compound = "O=C(Nc1nc2ccccc2[nH]1)C(=O)Nc1nc2ccccc2[nH]1"
units_of_measure = "%"
assay_value = 102

[[record]]
compound = "COc1ccc(-c2nc3sc(C)cn3c2/C=C/C(=O)c2cc(OC)c(OC)c(OC)c2)cc1"
units_of_measure = "%"
assay_value = 35.7


----------
Measured growth by item
System: RXF 393 renal
Experiment notes: NCI-60 one-dose screen, 48 h (100 = growth as untreated, 0 = no growth, -100 = all killed)
Experimental context: 10 µM unless noted
This is part of a sample that, as a whole, favours compounds with a hit. Of some 83,000 tested, about 20% had one in any assay.
Quantity kind: growth (%)

[[record]]
molecule = "O=C1C(Br)=C(c2ccccc2)C(=O)C(Br)=C1c1ccccc1"
quantity_kind = "growth"
units_of_measure = "%"
assay_value = 102

[[record]]
molecule = "CCCCCCCC/C=C\\CCCCCCCCOc1cccc(CC(=O)NCC[N+]2(C)CCCCC2)c1"
quantity_kind = "growth"
units_of_measure = "%"
assay_value = -2.16

[[record]]
molecule = "C[C@]1(CO)C[C@@H](O)C[C@]2(C)[C@@H]1CC[C@@]13C[C@@H]4[C@@H](C[C@H]12)[C@]4(C)C3"
quantity_kind = "growth"
units_of_measure = "%"
assay_value = 119

[[record]]
molecule = "COc1ccc(C(=O)C2=CC(=O)C(=O)C2)cc1OC"
quantity_kind = "growth"
units_of_measure = "%"
assay_value = 106

[[record]]
molecule = "NC1=NC(c2ccccc2OS(=O)(=O)c2ccc(Br)cc2)n2c(nc3ccccc32)N1 (configuration not stated)"
quantity_kind = "growth"
units_of_measure = "%"
assay_value = 109

[[record]]
molecule = "CCCN(CCC)c1ccc(/C=C/c2ccc3cc(OCC)ccc3n2)cc1"
quantity_kind = "growth"
units_of_measure = "%"
assay_value = 81.6

[[record]]
molecule = "FC(F)(F)c1cc(CNc2nc(Cl)ncc2Br)cc(C(F)(F)F)c1"
quantity_kind = "growth"
units_of_measure = "%"
assay_value = 92.6


----------
System: KM12 colon
Experiment notes: NCI-60 one-dose screen, 48 h
Experimental context: 10 µM unless noted
Compounds without any hit were thinned out: in the full panel of roughly 83,000, 20% have a hit. The source made the active and inactive calls. How the source made its calls: active means growth percent below 10; inactive means the rest.
Outcome codes: Yes (active), No (inactive)

[[record]]
compound = "Cc1ccc2c(N/N=C\\c3ccco3)cc(C)nc2n1"
class_name = "No"

[[record]]
compound = "Cc1c(C(=O)Nc2nc(-c3ccccc3)cs2)nnn1-c1ccccc1Br"
class_name = "No"

[[record]]
compound = "Nc1nc(N)c(N=Nc2c(Br)cc(S(N)(=O)=O)cc2Br)c(N)n1"
class_name = "No"

[[record]]
compound = "CCN1CCN(c2nc3ccccc3c3c(=O)c4cc(F)ccc4sc23)CC1"
class_name = "No"

[[record]]
compound = "CC(=O)Nc1ccccc1-c1n[nH]c(=O)[nH]c1=O"
class_name = "No"

[[record]]
compound = "CCOC(=O)n1cc(C2=C(c3cn(C)c4ccccc34)COC2=O)c2ccccc21"
class_name = "Yes"

[[record]]
compound = "C=C[C@H]1C[C@@H]2C[C@@H]3[C@H]4C/C=C\\C(=O)NCCCC5NC(=O)C(=C(O)/C=C/[C@@H]4CC(=O)[C@H]3[C@@H]2[C@H]1C)C5=O (stereo partly specified)"
class_name = "Yes"

[[record]]
compound = "O=C1/C(=C/c2ccc(Cl)cc2)CN(Cc2cn(CCCNc3ccnc4cc(Cl)ccc34)nn2)C/C1=C\\c1ccc(Cl)cc1"
class_name = "Yes"

[[record]]
compound = "NC(=O)c1nc2c([nH]c1=O)CCCC2"
class_name = "No"

[[record]]
compound = "Nc1c(Br)cc(Br)cc1-c1n[nH]c(=O)[nH]c1=O"
class_name = "No"

[[record]]
compound = "COc1ccc(-c2cc(=O)oc3c4c(ccc23)OCN(Cc2ccc(F)cc2)C4)cc1"
class_name = "No"

[[record]]
compound = "O=C(N/N=C/c1ccc(OC(F)F)c(OC2CCCC2)c1)c1cnn2c1NC(c1ccccc1)C2 (stereo unspecified)"
class_name = "No"

[[record]]
compound = "COc1cc(-c2nc(SC(C)C)nc(Nc3ccccc3C)c2C#N)cc(OC)c1OC"
class_name = "No"

[[record]]
compound = "COC(=O)[C@@]12CC[C@@H](C)[C@]3(C[C@@H](c4ccoc4)OC3=O)[C@H]1CC[C@@H]1O[C@@]12C"
class_name = "No"

[[record]]
compound = "O=C1NC(=S)S/C1=C\\c1cccc([N+](=O)[O-])c1"
class_name = "No"

[[record]]
compound = "O=c1c2cc(F)ccc2oc2c(NCCNCCO)nc3ccccc3c12"
class_name = "No"

[[record]]
compound = "Cc1cc(C)c(S(=O)O)c(C)c1"
class_name = "No"

[[record]]
compound = "O=c1[nH]c(-c2ccccn2)nc2sc3c(c12)CCCCCC3"
class_name = "No"

[[record]]
compound = "COC(=O)c1c2c(c(C)[n+]([O-])c1C)C(=O)C(NCc1ccc(O)cc1)=CC2=O"
class_name = "Yes"

[[record]]
compound = "Cc1ccc(-c2c3c(N)c4c(nc3nc3c2c(C)nn3-c2ccccc2)CCCC4)cc1"
class_name = "No"

[[record]]
compound = "COc1ncc(F)c(OC)n1"
class_name = "No"

[[record]]
compound = "COc1ccc(-c2nc3sc(C)cn3c2/C=C/C(=O)c2cc(OC)c(OC)c(OC)c2)cc1"
class_name = "No"

[[record]]
compound = "COc1cc2nc(N3CCC[C@H](NC4=CC(=O)c5ccccc5C4=O)C3)nc(N)c2cc1OC"
class_name = "Yes"

[[record]]
compound = "COc1ccc(/C=C/C(=O)N2CCC(O)CC2)cc1OC1CCCC1"
class_name = "No"

[[record]]
compound = "CCN1CCN(c2ccc(Nc3ncc4ccc5ncn(C(C)C)c5c4n3)nc2)CC1"
class_name = "Yes"

[[record]]
compound = "COc1ccc(/C=C2\\CN(Cc3cn(CCCNc4ccnc5cc(Cl)ccc45)nn3)C/C(=C\\c3ccc(OC)c(OC)c3)C2=O)cc1OC"
class_name = "Yes"

[[record]]
compound = "O=S(=O)(/N=C1C=C/C(=N\\S(=O)(=O)c2ccccc2)c2ccccc2\\1)c1ccccc1"
class_name = "No"

[[record]]
compound = "CC(C)OC1=C(Cl)C(=O)c2ccccc2C1=O"
class_name = "No"

[[record]]
compound = "O=C(c1cnn2c1NC(c1ccc(F)cc1)C2)N1CCCCC1 (stereo unspecified)"
class_name = "No"

[[record]]
compound = "O=S(=O)(OCCO)c1ccccc1"
class_name = "No"

[[record]]
compound = "O=C(NCc1ccco1)C1CCN(S(=O)(=O)c2ccc(Cl)cc2)CC1"
class_name = "No"

[[record]]
compound = "Cc1ccc(S(=O)(=O)c2ccc3[nH]c(=O)[nH]c(=O)c3c2)cc1"
class_name = "No"

[[record]]
compound = "Cc1ccc(S(=O)(=O)N2CCc3ccc(O)c4c3C2CCc2ccccc2-4)cc1 (stereo unspecified)"
class_name = "No"

[[record]]
compound = "O=C(c1ccccc1)C(Br)C(Br)c1cccc([N+](=O)[O-])c1 (stereo unspecified)"
class_name = "No"

[[record]]
compound = "CC(C)N1CCN(c2ccc(OC[C@H]3CO[C@](Cn4cncn4)(c4ccc(Cl)cc4Cl)O3)cc2)CC1"
class_name = "No"

[[record]]
compound = "N#C/C(=C\\c1ccc[nH]1)c1cc2ccccc2[nH]1"
class_name = "No"

[[record]]
compound = "O=C1C(N2CCOCC2)=Cc2cccc3cccc1c23"
class_name = "No"

[[record]]
compound = "COc1ccc(NC(=O)c2ccc3c(c2)nc(-c2ccc(Cl)cc2)n3-c2cc(C(C)(C)C)[nH]n2)cc1"
class_name = "No"

[[record]]
compound = "COc1cc(C2C3=C(COC3=O)N(CCO)c3cc4c(cc32)OCO4)cc(OC)c1O (stereo unspecified)"
class_name = "No"

[[record]]
compound = "O=C(N/N=C/c1ccc2c(c1)OCO2)c1cnn2c1NC(c1ccccc1)C2 (stereo unspecified)"
class_name = "No"

[[record]]
compound = "CN([N-]C(=O)CC(=O)[N-]N(C)C(=S)c1ccccc1)C(=S)c1ccccc1.[Cu+2]"
class_name = "Yes"

